# IC50 values compiled below
# measured_on: T1, human PCSK9 (human, UniProt Q8NBP7 31-692)
# T1 construct: also called hPCSK9; huPCSK9
# protocol_text: PCSK9:EGFA FRET 1, competition
test_readout: IC50 (nM)

binder: PCSK9-PKE2 tandem 4472_F04 (designed binder, The real molecule is ONE polypeptide: PCSK9 domain, undisclosed linker D, PKE2 domain. It is given here as two chains because the linker letters are unknown., not shown: The inter-domain linker) PCSK9 domain: MGVSDVPRDLEVVAATPTSLLISWDAPAEGYGYYRITYGETGGNSPVQEFTVPVSKGTATISGLKPGVDYTITVYAVEFDFPGAGYYHRPISINYRTE PKE2 domain: GVSDVPRDLEVVAATPTSLLISWDAPAVTVRYYRITYGREVQKYSDLGPLYIYQEFTVPGSKSTATISGLKPGVDYTITVYAVTGSGESPASSKPISINYRTEHHHHHH
test_readout: IC50
unit_descriptor: nM
numeric_readout: 3.99
--
binder: PCSK9-PKE2 tandem 4472_D06 (designed binder, not shown: The inter-domain linker; In the real molecule the two parts below are one polypeptide joined by this linker) PCSK9 domain: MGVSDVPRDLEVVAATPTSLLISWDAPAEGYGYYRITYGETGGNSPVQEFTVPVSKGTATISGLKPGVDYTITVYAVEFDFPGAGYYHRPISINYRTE PKE2 domain: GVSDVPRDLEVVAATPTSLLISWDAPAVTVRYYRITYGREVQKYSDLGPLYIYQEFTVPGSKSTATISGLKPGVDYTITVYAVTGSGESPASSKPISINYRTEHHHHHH
test_readout: IC50
unit_descriptor: nM
numeric_readout: 8.12
